# System: U2OS
# test_method_notes: cell viability relative to DMSO; higher = less toxic
# measurement_setup: 72 h; 1000 nM
measured_endpoint: cell viability (%)

{"columns": ["molecule", "measured_value"],
 "data": [
  ["O=C(O)C[C@H](O)C(=O)O", 97.6],
  ["O=C1NC(=O)c2c1c1c3ccccc3n3c1c1c2c2ccccc2n1C1CCC3O1", 86.8],
  ["Cc1nnc(C(=O)NC(C)(C)c2nc(C(=O)NCc3ccc(F)cc3)c(O)c(=O)n2C)o1", 97.5],
  ["CC(=C(CCO)SSCC1CCCO1)N(C=O)Cc1cnc(C)nc1N (stereo in doubt)", 97.8],
  ["CCCCc1ccc(C(N)=O)nc1 [bupicomide]", 93.6],
  ["Cc1cc(Nc2cc(C)c(C#N)c(N[C@@H](C)CCCC(C)(C)O)n2)n[nH]1", 68.8],
  ["CC(=O)Oc1cc2c(s1)CCN(C(C(=O)C1CC1)c1ccccc1F)C2 (stereo unspecified)", 97.9],
  ["NC(=O)c1ncn([C@@H]2O[C@H](CO)[C@@H](O)[C@H]2O)c1O", 96.3],
  ["Nc1c(Br)cc(Br)cc1CN[C@H]1CC[C@H](O)CC1", 101],
  ["COc1cc(/C=C/C(=O)O)ccc1O", 99.3],
  ["N=C(N)SCc1ccc(B(O)O)cc1", 97.1]
]}
